Values compiled from the supplement of paper PMC6555819.

test system: THRa homodimer (NR concentration 90 nM); experiment: PBM binding z-score (relative to random genomic background probes); higher = stronger binding; sequences stand for … in GC…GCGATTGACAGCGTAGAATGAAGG
Label F if PBM binding z-score falls below 0.6; label T in every other case.

Reported PBM binding z-score at or above 0.6? "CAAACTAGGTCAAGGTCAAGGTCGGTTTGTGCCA" T

Also need "CAAACTAGGTCAAGAAAGGTCAAAGTCGAATGAC" , thanks. T

Also need "CCGACTGGGGCCAGGTTACCATAACGCACAGCCA" , thanks. F

Also need "TAGCCTAGGTCATGCGGGCCAGGATAGTGTCGGC" , thanks. T

Also need "CGAACTAGGTCAGAACAGGACAGTCAAGGATGAT" , thanks. F

Also need "GCAGAGAGGTGAAACGCAGGTAACTCAGGGTGGC" , thanks. F

Also need "TATACAGGGTCAAAGGCCAGTGTACGAATGTCGA" , thanks. T

Also need "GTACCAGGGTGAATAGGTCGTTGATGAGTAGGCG" , thanks. F

Also need "TCATATAGGTAAAAGGTGAGAGTCGGTGTGGTAA" , thanks. F

Also need "CGAACTAGGTCAGTGACAGGACAGTGAATAGTAA" , thanks. F

* * *

system: PPARg:RXRa 90nM:30nM, anti-RXR (NR concentration 90 nM, RXRa partner concentration 30 nM); experiment: PBM binding z-score (relative to random genomic background probes); higher = stronger binding; sequences stand for … in GC…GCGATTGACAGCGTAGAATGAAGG
Exercise: state measured PBM binding z-score for each of the sequences provided.
No unit in the answer, please; the number alone is enough.

Value lookup for PBM binding z-score; key = "TCATATAGGTAAAAAGGTGAAAGTCCGTAAGTTA" 5.53

Also need "GCGACTGGGGTAAAGCAGGTTACCATAAGGTTGG" , thanks. 0.64

Also need "ACAGACAGGTGATGAAAGTAACTCAGGCTATCAT" , thanks. -0.305

Also need "CCATACGGGTCACGAGGTTATAGCACGACGAGCG" , thanks. 5.37

Also need "CCATACAGGTGAAAGGTAACTCAGTCTGGTACGC" , thanks. 8.48

Also need "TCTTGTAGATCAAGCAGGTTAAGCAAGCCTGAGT" , thanks. 1.39

* * *

tested on: RARa homodimer (NR concentration 270 nM); test: PBM binding z-score (relative to random genomic background probes); higher = stronger binding; sequences stand for … in GC…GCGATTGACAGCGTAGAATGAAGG
Exercise: state measured PBM binding z-score for each of the sequences provided.
No unit in the answer, please; the number alone is enough.

Value lookup for PBM binding z-score; key = "CCTAGCAGGCCAGTGTCACTCAAGCATTTCGCTT" -0.658

Also need "CCTACTGGGCGAAAGGTCATTGATTCCAATGCTC" , thanks. 0.869

Also need "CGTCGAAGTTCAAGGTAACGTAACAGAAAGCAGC" , thanks. -0.214

Also need "TAGCCTAGGTCATGCGGGCCAGTCTAGTGTCGGC" , thanks. -0.19

Also need "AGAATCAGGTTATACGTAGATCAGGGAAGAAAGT" , thanks. 0.86

Also need "AGAATGAGGTTAAGATCAGGGACACAGAATACAT" , thanks. 1.57

Also need "CCAGACAGGTGAGAAGGTAACCCAGCCTCGATTA" , thanks. 0.439

Also need "AGAACGAGGGCACGCTGAGTTGAGAGCAGAGTAG" , thanks. -0.318

Also need "TCATATAGGTAAACAGGTGGAAGTCCGTAAGTTA" , thanks. 0.928
